Tested on: human neutrophils
Test: Cell migration
Format: cell-based
Conditions: Neutrophil, 1 h, read-out: EC50 in migration assay
// values below are reported pEC50
Recall that pEC50 is obtained by taking minus log10 of the concentration measured in molar.

// below: answered compounds
C=Cc1c(C)nn(CC(=O)Nc2ccc(Br)cc2)c(=O)c1Nc1cccc(OC)c1	5.92
COc1cccc(Nc2c(C(C)=O)c(C)nn(CC(=O)Nc3ccc(Br)cc3)c2=O)c1	5.66
COc1ccc(Nc2c(-c3ccn(C)n3)c(C)nn(CC(=O)Nc3ccc(Br)cc3)c2=O)cc1 [Compound 27b]	6.35

Inquiry: Name the reported pEC50 value associated with the compound COc1cccc(Nc2c(-c3ccn(C)n3)c(C)nn(CC(=O)Nc3ccc(Br)cc3)c2=O)c1 [Compound 27a]
Reply text: 5.96

----------
Target: FPR2 (Homo sapiens)
Sequence (P25090 1-351): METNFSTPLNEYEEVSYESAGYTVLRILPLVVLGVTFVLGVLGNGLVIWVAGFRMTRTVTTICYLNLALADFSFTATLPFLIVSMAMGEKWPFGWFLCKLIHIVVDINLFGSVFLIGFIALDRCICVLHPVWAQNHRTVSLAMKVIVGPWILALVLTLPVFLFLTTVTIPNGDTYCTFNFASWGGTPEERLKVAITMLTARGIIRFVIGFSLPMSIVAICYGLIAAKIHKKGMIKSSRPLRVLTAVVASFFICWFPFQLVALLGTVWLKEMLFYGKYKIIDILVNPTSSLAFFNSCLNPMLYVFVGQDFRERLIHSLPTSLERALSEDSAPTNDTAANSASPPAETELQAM
Assay: Ca2+ flux assay in FPR2-HL60 cells
Assay type: cell-based
Details: read-out: FPR2-HL60 Efficacy
Measured parameter: Emax
Please provide the amount together with its unit, number first.

COc1cccc(Nc2c(C(C)=O)c(C)nn(CC(=O)Nc3ccc(Br)cc3)c2=O)c1	60%
COc1cccc(Nc2c(C(=O)C3CCCC3)c(C)nn(CC(=O)Nc3ccc(Br)cc3)c2=O)c1	60%

// below: Emax requested for another molecule
Inquiry: Notebook entry, FPR2 (Homo sapiens) assay: Emax of COC(=O)c1c(C)nn(CC(=O)Nc2ccc(Br)cc2)c(=O)c1Nc1cccc(OC)c1 [Compound 19a] = ?
Reply text: 60%

----------
Molecular target: FPR2 (Homo sapiens)
Sequence (P25090 1-351): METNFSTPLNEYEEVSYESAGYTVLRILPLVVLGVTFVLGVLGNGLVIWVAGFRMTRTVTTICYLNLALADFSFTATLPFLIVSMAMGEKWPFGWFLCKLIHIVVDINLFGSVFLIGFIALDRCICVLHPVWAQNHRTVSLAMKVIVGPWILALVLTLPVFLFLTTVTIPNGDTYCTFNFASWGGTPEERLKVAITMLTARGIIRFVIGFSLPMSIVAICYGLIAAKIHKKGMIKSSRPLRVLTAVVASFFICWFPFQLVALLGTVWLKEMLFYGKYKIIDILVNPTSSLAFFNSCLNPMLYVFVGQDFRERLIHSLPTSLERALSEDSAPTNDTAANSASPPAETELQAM
Assay: Ca2+ flux assay in FPR2-HL60 cells
Type: cell-based
Settings: FPR2-HL60 EC50, Ca2+ flux, HL-60 cells transfected with FPR2
Measured parameter: pEC50
Recall that pEC50 is obtained by taking minus log10 of the concentration measured in molar.

Cc1nn(CC(=O)Nc2ccc(Br)cc2)c(=O)c(N)c1-c1ccn(C)n1	5.72

Inquiry: Name the reported pEC50 value associated with the compound CCOC(=O)c1c(C)nn(CC(=O)Nc2ccc(Br)cc2)c(=O)c1Nc1cccc(OC)c1 [Compound 19b]
Reply text: 5.72

Inquiry: Further, for CCC(=O)c1c(C)nn(CC(=O)Nc2ccc(Br)cc2)c(=O)c1Nc1cccc(OC)c1 ?
Reply text: 6.11

Inquiry: Further, for CCCCc1c(C)nn(CC(=O)Nc2ccc(Br)cc2)c(=O)c1Nc1cccc(OC)c1 [Compound 13c] ?
Reply text: 5.35

Inquiry: Further, for COc1ccc(Nc2c(-c3ccn(C)n3)c(C)nn(CC(=O)Nc3ccc(Br)cc3)c2=O)cc1 [Compound 27b] ?
Reply text: 7.46

Inquiry: Further, for CCc1c(C)nn(CC(=O)Nc2ccc(Br)cc2)c(=O)c1Nc1cccc(OC)c1 [Compound 13a] ?
Reply text: 7.21

Inquiry: Further, for COc1cccc(Nc2cc(C)cn(CC(=O)Nc3ccc(Br)cc3)c2=O)c1 [Compound 29b] ?
Reply text: 5.09

Inquiry: Further, for CCCC(=O)c1c(C)nn(CC(=O)Nc2ccc(Br)cc2)c(=O)c1Nc1cccc(OC)c1 ?
Reply text: 5.09
